Target: GST P1-1 (Homo sapiens)
Construct: purchased Sigma-Aldrich
Sequence (P09211 2-210 limits assumed): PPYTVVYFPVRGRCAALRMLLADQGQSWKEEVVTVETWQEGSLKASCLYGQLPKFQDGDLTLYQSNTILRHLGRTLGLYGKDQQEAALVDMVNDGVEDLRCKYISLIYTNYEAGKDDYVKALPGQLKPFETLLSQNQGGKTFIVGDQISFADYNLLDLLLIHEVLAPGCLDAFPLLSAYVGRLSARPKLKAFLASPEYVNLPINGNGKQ
Assay: High-throughput GST P1-1 inhibition assay (384-well screen, CDNB/GSH)
Type: biochemical
Settings: compound 10 μM; score 0 = negative control (DMSO), 1 = positive control (EA 50 μM); average of duplicate
This listing pairs compounds with measured Score.
Give the figure by itself; no unit, no explanation.

# annotated cases, reported Score shown
| test.smiles | tested.system | Score |
| --- | --- | --- |
| CC1=NN(c2ccccc2)C(=O)C1 | GST P1-1 (Homo sapiens) | 0.958 |
| O=C1NC(=O)/C(=C/c2ccc(-c3ccc(F)cc3O)o2)S1 | GST P1-1 (Homo sapiens) | 0.907 |
| CCOC(=O)Nc1cc(-c2ccc(C)c(NS(C)(=O)=O)c2)nn2c(C)nnc12 | GST P1-1 (Homo sapiens) | 0.801 |
| COc1cc(C(=O)NS(=O)(=O)c2ccccc2C)ccc1Cc1cn(C)c2ccc(NC(=O)OC3CCCC3)cc12 | GST P1-1 (Homo sapiens) | 0.801 |

Next:
Reported Score for `CC/C=C\C/C=C\C/C=C\C/C=C\C/C=C\C/C=C\CCC(=O)O` was 0.821
